# method.summary: Selectivity index, ratio of IC50 for HEK293 cells to IC50 for human HCT-116 cells
# study.conditions: HEK293 cells versus HCT-116 cells

{"columns": ["input.smiles", "selectivity ratio"],
 "data": [
  ["Cc1cc(S(=O)(=O)Nc2nc(Nc3ccc4cc(O)ccc4c3)n[nH]2)c(S)cc1Cl", "> 65"],
  ["COc1ccc2ccccc2c1Nc1n[nH]c(NS(=O)(=O)c2cc(C)c(Cl)cc2S)n1", "> 65"],
  ["COc1ccc(Nc2n[nH]c(NS(=O)(=O)c3cc(C)c(Cl)cc3S)n2)c(OC)c1OC", "> 65"]
]}

* * *

# method.summary: Selectivity index, ratio of IC50 for HEK293 cells to IC50 for human MDA-MB-231 cells
# study.conditions: HEK293 cells versus MDA-MB-231 cells
List of selectivity ratio values.

{"columns": ["input.smiles", "selectivity ratio"],
 "data": [
  ["Cc1cc2c(cc1Cl)SC(/N=C(/N)Nc1ccc3cnccc3c1)=NS2(=O)=O", "> 65"],
  ["Cc1cc(S(=O)(=O)Nc2nc(Nc3ccc(Br)cc3)n[nH]2)c(S)cc1Cl", "> 65"],
  ["COc1ccc(Nc2n[nH]c(NS(=O)(=O)c3cc(C)c(Cl)cc3S)n2)c(OC)c1OC", "> 65"],
  ["Cc1cc2c(cc1Cl)SC(/N=C(/N)Nc1ccc3cc(O)ccc3c1)=NS2(=O)=O", "> 65"],
  ["Cc1cc2c(cc1Cl)SC(/N=C(/N)Nc1ccc3ccccc3n1)=NS2(=O)=O", "> 65"],
  ["Cc1cc(S(=O)(=O)Nc2nc(Nc3cccc4cnccc34)n[nH]2)c(S)cc1Cl", "> 65"],
  ["Cc1cc(S(=O)(=O)Nc2nc(Nc3cccc4ccccc34)n[nH]2)c(S)cc1Cl", "> 65"],
  ["Cc1cc2c(cc1Cl)SC(/N=C(/N)Nc1ccnc3ccccc13)=NS2(=O)=O", "> 65"],
  ["Cc1cc(S(=O)(=O)Nc2nc(Nc3cncc4ccccc34)n[nH]2)c(S)cc1Cl", "> 65"],
  ["Cc1cc(S(=O)(=O)Nc2nc(Nc3ccnc4cc(Cl)ccc34)n[nH]2)c(S)cc1Cl", "> 65"],
  ["Cc1cc2c(cc1Cl)SC(/N=C(/N)Nc1ccc(Cl)cc1)=NS2(=O)=O", "> 65"],
  ["CC(=O)c1cn(C)c2ccc(N/C(N)=N\\C3=NS(=O)(=O)c4cc(C)c(Cl)cc4S3)cc12", "> 65"],
  ["COc1nc(N/C(N)=N\\C2=NS(=O)(=O)c3cc(C)c(Cl)cc3S2)c2ccn(C)c2n1", "> 65"],
  ["Cc1cc(S(=O)(=O)Nc2nc(NC(=O)c3ccc4ccccc4c3)n[nH]2)c(S)cc1Cl", "> 65"],
  ["Cc1cc2c(cc1Cl)SC(/N=C(/N)Nc1ccc3c(ccc(=O)n3C)c1)=NS2(=O)=O", "> 65"],
  ["COc1ccc(Nc2n[nH]c(NS(=O)(=O)c3cc(C)c(Cl)cc3S)n2)cc1", "> 65"],
  ["Cc1cc2c(cc1Cl)SC(/N=C(/N)Nc1cccc3ncccc13)=NS2(=O)=O", "> 65"],
  ["COc1ccc2ccccc2c1Nc1n[nH]c(NS(=O)(=O)c2cc(C)c(Cl)cc2S)n1", "> 65"],
  ["COc1cc2nccc(N/C(N)=N\\C3=NS(=O)(=O)c4cc(C)c(Cl)cc4S3)c2cc1OC", "> 65"]
]}
